Experimental protocol: Cytotoxicity against human LUC1 cells after 3 days by sulforhodamine B assay
Assay type: functional
Experimental parameters: LUC1, 72 h, read-out: ED50 (the source's name)
Give EC50 for every item shown.
Quick reminder: number only, in µg/mL, skip the unit.

Lookup: Which EC50 reading was recorded for the compound `CO[C@H]1C=C[C@@]23c4cc5c(cc4CN(C[C@@H]2O)[C@H]3C1)OCO5` ?
Found: 1.4

Lookup: Which EC50 reading was recorded for the compound `CO[C@@H]1C[C@H]2N3CC[C@@]2(c2cc4c(cc2C3)OCO4)[C@H]2O[C@@H]12` ?
Found: 3.7

Lookup: Which EC50 reading was recorded for the compound `O[C@H]1[C@H]2c3cc4c(cc3CN3CCC(=C[C@@H]1O)[C@H]23)OCO4` ?
Found: 0.9
